Where these numbers come from: patent US9382295B2

target: cyclophilin A (Cyp A) (Homo sapiens); construct: purchased Sigma C3805; experiment: Protease-free PPIase assay, cyclophilin A; assay type: biochemical; settings: protease-free PPIase assay, class symbols; read-out: CypA Ki
Numbered stars: 1 amine (or outer) side, 2 acyl side, 3 side chain; on linkers, the order of the positions; unused ones are H or OH. Square brackets hold non-standard residues; d marks the D form. Peptide text beside a SMILES is read from it. X12 = C[C@H](CCN(C)Cc1ccncc1)[C@@H](O)[C@H](C(=O)[*:2])N(C)[*:1]; X29 = C[C@H](CCN(C)Cc1ccccn1)[C@@H](O)[C@H](C(=O)[*:2])N(C)[*:1]; X7 = C[C@H](CCN(C)Cc1ccnn1C)[C@@H](O)[C@H](C(=O)[*:2])N(C)[*:1]; d(aThr) = C[C@@H](O)[C@@H](N)C(=O)O; NMeL = CN[C@@H](CC(C)C)C(=O)O; dNMeL = CN[C@H](CC(C)C)C(=O)O; dNMeV = CN[C@@H](C(=O)O)C(C)C; Hiv = CC(C)[C@H](O)C(=O)O; Sar = CNCC(=O)O
# maps each entry to its Ki

Observe how each entry below is paired with its result.
compound | Ki
CC(C)C[C@@H]1C(=O)N[C@H](CC(C)C)C(=O)N(C)[C@H](C(C)C)C(=O)N(C)[C@H]([C@H](O)[C@H](C)CCN(C)Cc2ccnn2C)C(=O)N[C@H]([C@@H](C)O)C(=O)N(C)CC(=O)N(C)[C@@H](CC(C)C)C(=O)N[C@H](CC(C)C)C(=O)N(C)[C@H](CC(C)C)C(=O)N[C@H](C)C(=O)O[C@@H](C(C)C)C(=O)N1C [Example 5] (cyclo([Hiv][dNMeL][dL][dNMeV][X7][d(aThr)][Sar][NMeL][dL][dNMeL][dA])) | 1 to 25 nM
CC(C)C[C@@H]1C(=O)N[C@H](CC(C)C)C(=O)N(C)[C@H](C(C)C)C(=O)N(C)[C@H]([C@H](O)[C@H](C)CCN(C)Cc2ccccn2)C(=O)N[C@H]([C@@H](C)O)C(=O)N(C)CC(=O)N(C)[C@@H](CC(C)C)C(=O)N[C@H](CC(C)C)C(=O)N(C)[C@H](CC(C)C)C(=O)N[C@H](C)C(=O)O[C@@H](C(C)C)C(=O)N1C [Example 31] (cyclo([Hiv][dNMeL][dL][dNMeV][X29][d(aThr)][Sar][NMeL][dL][dNMeL][dA])) | 25 to 100 nM

Field: next compound
Prompt line: Value wanted: Ki (cyclophilin A (Cyp A) (Homo sapiens)) of entry CC(C)C[C@@H]1C(=O)N[C@H](CC(C)C)C(=O)N(C)[C@H](C(C)C)C(=O)N(C)[C@H]([C@H](O)[C@H](C)CCN(C)Cc2ccncc2)C(=O)N[C@H]([C@@H](C)O)C(=O)N(C)CC(=O)N(C)[C@@H](CC(C)C)C(=O)N[C@H](CC(C)C)C(=O)N(C)[C@H](CC(C)C)C(=O)N[C@H](C)C(=O)O[C@@H](C(C)C)C(=O)N1C [Example 3] (cyclo([Hiv][dNMeL][dL][dNMeV][X12][d(aThr)][Sar][NMeL][dL][dNMeL][dA]))
Response line: 1 to 25 nM

---

biological target: calcineurin/cyclophilin A (Homo sapiens, UniProt P62937+P63098+Q08209); construct: Sigma (CypA) BML-AK804; C3805; assay: Calcineurin phosphatase (CaN) assay in the presence of Cyp A; details: inhibitor in 1:1 complex with Cyp A; read-out: CaN + CypA (IC50 in the calcineurin/cyclophilin A assay)
Sequence (P63098 whole entry, other chains not shown): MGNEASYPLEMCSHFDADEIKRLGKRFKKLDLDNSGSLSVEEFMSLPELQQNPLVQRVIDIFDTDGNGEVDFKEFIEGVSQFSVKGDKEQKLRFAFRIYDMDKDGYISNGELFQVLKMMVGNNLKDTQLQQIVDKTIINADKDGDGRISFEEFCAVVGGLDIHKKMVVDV
Sequence (P62937 whole entry, other chains not shown): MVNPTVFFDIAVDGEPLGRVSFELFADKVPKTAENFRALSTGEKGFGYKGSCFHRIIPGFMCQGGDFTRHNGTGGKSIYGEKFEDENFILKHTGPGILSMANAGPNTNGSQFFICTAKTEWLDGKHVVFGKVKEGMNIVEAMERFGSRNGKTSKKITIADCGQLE
pIC50: −log10 of the molar value. Numbered stars: 1 amine (or outer) side, 2 acyl side, 3 side chain; on linkers, the order of the positions; unused ones are H or OH. Square brackets hold non-standard residues; d marks the D form. Peptide text beside a SMILES is read from it. X1 = Cc1cccc(CCC[C@@H](C)[C@@H](O)[C@H](C(=O)[*:2])N(C)[*:1])n1; X4 = C[C@H](C/C=C/c1ncccn1)[C@@H](O)[C@H](C(=O)[*:2])N(C)[*:1]; d(aThr) = C[C@@H](O)[C@@H](N)C(=O)O; NMeL = CN[C@@H](CC(C)C)C(=O)O; dNMeL = CN[C@H](CC(C)C)C(=O)O; dNMeV = CN[C@@H](C(=O)O)C(C)C; Hiv = CC(C)[C@H](O)C(=O)O; Sar = CNCC(=O)O
# maps each entry to its pIC50

Observe how each entry below is paired with its result.
compound | pIC50
CC(C)CC1NC(=O)[C@H](CC(C)C)N(C)C(=O)CN(C)C(=O)C([C@@H](C)O)NC(=O)C([C@H](O)[C@H](C)CCN2CCOCC2)N(C)C(=O)C(C(C)C)N(C)C(=O)C(CC(C)C)NC(=O)C(CC(C)C)N(C)C(=O)C(C(C)C)OC(=O)C(C)NC(=O)C(CC(C)C)N(C)C1=O (stereo in doubt) | < 6.00
CC(C)C[C@@H]1C(=O)N[C@H](CC(C)C)C(=O)N(C)[C@H](C(C)C)C(=O)N(C)[C@H]([C@H](O)[C@H](C)C/C=C/c2ncccn2)C(=O)N[C@H]([C@@H](C)O)C(=O)N(C)CC(=O)N(C)[C@@H](CC(C)C)C(=O)N[C@H](CC(C)C)C(=O)N(C)[C@H](CC(C)C)C(=O)N[C@H](C)C(=O)O[C@@H](C(C)C)C(=O)N1C [Example 15] (cyclo([Hiv][dNMeL][dL][dNMeV][X4][d(aThr)][Sar][NMeL][dL][dNMeL][dA])) | < 6.00

Field: next compound
Prompt line: # query: pIC50 of entry Cc1cccc(CCC[C@@H](C)[C@@H](O)[C@@H]2C(=O)N[C@H]([C@@H](C)O)C(=O)N(C)CC(=O)N(C)[C@@H](CC(C)C)C(=O)N[C@H](CC(C)C)C(=O)N(C)[C@H](CC(C)C)C(=O)N[C@H](C)C(=O)O[C@@H](C(C)C)C(=O)N(C)[C@H](CC(C)C)C(=O)N[C@H](CC(C)C)C(=O)N(C)[C@H](C(C)C)C(=O)N2C)n1 [Example 17] (cyclo([Hiv][dNMeL][dL][dNMeV][X1][d(aThr)][Sar][NMeL][dL][dNMeL][dA]))
Response line: < 6.00

---

test: Rat pharmacokinetics, iv and po dosing, whole blood and plasma; format: in vivo; details: plasma, po 10 mg/kg, mean
attribute-measured: AUC(0-t) (µg·h/mL)
Give a bare numeral; the unit µg·h/mL is implied.

Prompt line: # query: AUC(0-t) of entry CC(C)CC1NC(=O)[C@H](CC(C)C)N(C)C(=O)CN(C)C(=O)C([C@@H](C)O)NC(=O)C([C@H](O)[C@H](C)CCN2CCOCC2)N(C)C(=O)C(C(C)C)N(C)C(=O)C(CC(C)C)NC(=O)C(CC(C)C)N(C)C(=O)C(C(C)C)OC(=O)C(C)NC(=O)C(CC(C)C)N(C)C1=O (stereo in doubt) [Example 2]
Response line: 2.25

---

assay: Rat pharmacokinetics, iv and po dosing, whole blood and plasma; assay type: in vivo; conditions: plasma, iv 1 mg/kg, mean
attribute-measured: AUC(0-t) (ng·h/mL)
Give a bare numeral; the unit ng·h/mL is implied.

Prompt line: # query: AUC(0-t) of entry CC(C)CC1NC(=O)[C@H](CC(C)C)N(C)C(=O)CN(C)C(=O)C([C@@H](C)O)NC(=O)C([C@H](O)[C@H](C)CCN2CCOCC2)N(C)C(=O)C(C(C)C)N(C)C(=O)C(CC(C)C)NC(=O)C(CC(C)C)N(C)C(=O)C(C(C)C)OC(=O)C(C)NC(=O)C(CC(C)C)N(C)C1=O (stereo in doubt)
Response line: 197

---

assay: Rat pharmacokinetics, iv and po dosing, whole blood and plasma; assay type: in vivo; settings: plasma, iv 1 mg/kg, mean
attribute-measured: Cmax (ng/mL)
Give a bare numeral; the unit ng/mL is implied.

Prompt line: # query: Cmax of entry CC(C)CC1NC(=O)[C@H](CC(C)C)N(C)C(=O)CN(C)C(=O)C([C@@H](C)O)NC(=O)C([C@H](O)[C@H](C)CCN2CCOCC2)N(C)C(=O)C(C(C)C)N(C)C(=O)C(CC(C)C)NC(=O)C(CC(C)C)N(C)C(=O)C(C(C)C)OC(=O)C(C)NC(=O)C(CC(C)C)N(C)C1=O (stereo in doubt)
Response line: 275

---

experiment: Rat pharmacokinetics, iv and po dosing, whole blood and plasma; type: in vivo; conditions: whole blood, po 10 mg/kg vs iv 1 mg/kg, mean
attribute-measured: bioavailability (%)
Give a bare numeral; the unit % is implied.

Prompt line: # query: bioavailability of entry CC(C)CC1NC(=O)[C@H](CC(C)C)N(C)C(=O)CN(C)C(=O)C([C@@H](C)O)NC(=O)C([C@H](O)[C@H](C)CCN2CCOCC2)N(C)C(=O)C(C(C)C)N(C)C(=O)C(CC(C)C)NC(=O)C(CC(C)C)N(C)C(=O)C(C(C)C)OC(=O)C(C)NC(=O)C(CC(C)C)N(C)C1=O (stereo in doubt) [Example 2]
Response line: 70.1
